# System: Pseudomonas aeruginosa
# experiment description: Antibacterial activity against Pseudomonas aeruginosa QLD PSA 1 after 18 hrs by broth microdilution method
# Format: functional
# recorded conditions: QLD PSA 1, 18 h
Binary label based on MIC with cut-off 9 µM: below gives TRUE, not below gives FALSE.

{"structure": "Clc1ccc2c(c1)[I+]c1ccccc1-2", "test system": "Pseudomonas aeruginosa", "class": "TRUE"}
{"structure": "Cc1cccc2c1-c1ccccc1[I+]2", "test system": "Pseudomonas aeruginosa", "class": "TRUE"}
{"structure": "c1ccc2c(c1)[I+]c1c-2ccc2ccccc12", "test system": "Pseudomonas aeruginosa", "class": "TRUE"}
{"structure": "Cc1ccc2c(c1)-c1ccccc1[I+]2", "test system": "Pseudomonas aeruginosa", "class": "FALSE"}
{"structure": "COc1cccc2c1-c1ccccc1[I+]2", "test system": "Pseudomonas aeruginosa", "class": "FALSE"}

Query: Would you kindly verify if MIC of "Cc1ccc2c(c1)[I+]c1ccccc1-2.O=S(=O)([O-])C(F)(F)F" is strictly less than 9 µM?
Reply: FALSE

Query: Please check: MIC for "Fc1ccc2c(c1)-c1ccccc1[I+]2" , strictly under 9 µM or not?
Reply: FALSE

Query: Strictly below 9 µM in MIC? "Clc1cccc2c1-c1ccccc1[I+]2"
Reply: TRUE

Query: Please check: MIC for "COc1ccc2c(c1)[I+]c1ccccc1-2" , strictly under 9 µM or not?
Reply: FALSE

Query: I'd appreciate it if you could check whether "Fc1cccc2c1-c1ccccc1[I+]2" has MIC smaller than 9 µM.
Reply: TRUE

Provenance of the data: ChEMBL document CHEMBL4145448
